Data provenance: paper PMC10618793

Target: P2X4 receptor (Homo sapiens, UniProt Q99571)
Construct: His tag (N); purchased MyBioSource, Inc (San Diego, CA, USA)
Sequence (Q99571 77-338): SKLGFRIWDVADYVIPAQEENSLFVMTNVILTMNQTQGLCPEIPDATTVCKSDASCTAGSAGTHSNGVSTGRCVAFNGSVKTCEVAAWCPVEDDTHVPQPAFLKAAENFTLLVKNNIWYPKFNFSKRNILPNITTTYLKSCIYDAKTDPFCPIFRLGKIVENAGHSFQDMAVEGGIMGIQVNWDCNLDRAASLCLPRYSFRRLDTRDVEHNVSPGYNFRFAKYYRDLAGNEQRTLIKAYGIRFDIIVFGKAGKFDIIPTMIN
Assay: Surface plasmon resonance binding screening assay
Settings: KD (equilibrium dissociation constant), SPR Biacore T200, P2X4 immobilized on CM5 chip, 0.4-300 μM, 1:1 binding model; n.d. = not detectable
recorded-metric: Kd (µM)
Number only, in µM; omit the unit.

Incoming: Assign Kd to the following record: CCCc1cc(O)c2c(c1)OC(C)(C)c1ccc(C)cc1-2
Outgoing: 16.4

Incoming: Assign Kd to the following record: C=C(C)c1ccc(C)cc1-c1c(O)cc(CCCCC)cc1O
Outgoing: 84

Incoming: Assign Kd to the following record: CCCCCc1cc(O)c2c(c1)OC(C)(C)C1CCC(CO)=CC21 (stereo not drawn)
Outgoing: 6.31

Incoming: Assign Kd to the following record: CCCCCc1cc2c(c(O)c1C(=O)O)[C@@H]1C=C(C)CC[C@H]1C(C)(C)O2 [THCA-A, Δ^9-tetrahydrocannabinolic acid A]
Outgoing: 117

Incoming: Assign Kd to the following record: C=C(C)[C@@H]1CCC(C)=C[C@H]1c1c(O)cc(CCCCC)cc1O
Outgoing: 1

Incoming: Assign Kd to the following record: C=C(C)[C@@H]1CCC(C)=C[C@H]1c1c(O)cc(CCC)cc1O
Outgoing: 9.9
